- Test system: biotinyl-Ile-oxazolone
- EXPERIMENTAL DETAILS: self-aminoacylation, catalytic enhancement (BIO) (fold over background); higher = more active; k-Seq, kA / k0A0; sequences stand for … in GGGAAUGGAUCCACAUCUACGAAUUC…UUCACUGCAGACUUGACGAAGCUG
Variants at the floor of the assay were thinned out.
This listing pairs sequences with measured self-aminoacylation.
ASSAY READOUT: self-aminoacylation

INSERT INTO results (item_sequence, system, experimental_value) VALUES
  ('AUUCAGCAAGGUCAUCGGGUG [Fam2.2 aminoacylation ribozyme variant]', 'biotinyl-Ile-oxazolone', 4.51),
  ('CUACUUCAAGCAAUCGCUCUG [Fam1A.1 aminoacylation ribozyme variant]', 'biotinyl-Ile-oxazolone', 0.99),
  ('CCAUACUUCAAGCAAGCGGUC [Fam1B.1 aminoacylation ribozyme variant]', 'biotinyl-Ile-oxazolone', 1.09),
  ('AUUCAACUAGGUCAUCGGUUG [Fam2.2 aminoacylation ribozyme variant]', 'biotinyl-Ile-oxazolone', 0.952),
  ('AAGUAUGCUAAUAGUAGCAAG [Fam3.1 aminoacylation ribozyme variant]', 'biotinyl-Ile-oxazolone', 1.53),
  ('AAGUGUGCUACUAGUCGCAAG [Fam3.1 aminoacylation ribozyme variant]', 'biotinyl-Ile-oxazolone', 1.29),
  ('AUCCACCUAGGUCAUCCGGUG [Fam2.2 aminoacylation ribozyme variant]', 'biotinyl-Ile-oxazolone', 5.53),
  ('AUUACCCUGGUCAGCCAGUGA [Fam2.1 aminoacylation ribozyme variant]', 'biotinyl-Ile-oxazolone', 5.41),
  ('UCCCACUUCAAGCAAUCGGUC [Fam1B.1 aminoacylation ribozyme variant]', 'biotinyl-Ile-oxazolone', 1.28),
  ('CCACACUUCAAGCAACCGGAC [Fam1B.1 aminoacylation ribozyme variant]', 'biotinyl-Ile-oxazolone', 1.15),
  ('AAACUUGCUAAUAGUCGCAAG [Fam3.1 aminoacylation ribozyme variant]', 'biotinyl-Ile-oxazolone', 2.62),
  ('AUUACUCUGGUCACCGAGUGA [Fam2.1 aminoacylation ribozyme variant]', 'biotinyl-Ile-oxazolone', 3.28),
  ('CUACUUCGAACACUCGGUCUG [Fam1A.1 aminoacylation ribozyme variant]', 'biotinyl-Ile-oxazolone', 1.02),
  ('AUUCAUCUAGGUCGUCGGGUG [Fam2.2 aminoacylation ribozyme variant]', 'biotinyl-Ile-oxazolone', 1.93),
  ('GUACUUCAAACAAUCGGUCUC [Fam1A.1 aminoacylation ribozyme variant]', 'biotinyl-Ile-oxazolone', 1.5),
  ('CCACACUUCAAUCAAUCGGUA [Fam1B.1 aminoacylation ribozyme variant]', 'biotinyl-Ile-oxazolone', 0.79),
  ('AUUACCCAGGUCAUCGAUUGA [Fam2.1 aminoacylation ribozyme variant]', 'biotinyl-Ile-oxazolone', 0.872),
  ('CCACACUUCAAGGAAUCGGUA [Fam1B.1 aminoacylation ribozyme variant]', 'biotinyl-Ile-oxazolone', 1.26),
  ('CUACUUCAGACAAUCGGUUUG [Fam1A.1 aminoacylation ribozyme variant]', 'biotinyl-Ile-oxazolone', 0.771),
  ('AUUCACAUAGGUCAUCUGGUG [Fam2.2 aminoacylation ribozyme variant]', 'biotinyl-Ile-oxazolone', 2.1),
  ('CUUCACCUAGGUCACCGGGUG [Fam2.2 aminoacylation ribozyme variant]', 'biotinyl-Ile-oxazolone', 2.92),
  ('CCACACUACAAGCAUUCGGUC [Fam1B.1 aminoacylation ribozyme variant]', 'biotinyl-Ile-oxazolone', 2.14),
  ('AAGGUGGCUAAUAGUCGCAAG [Fam3.1 aminoacylation ribozyme variant]', 'biotinyl-Ile-oxazolone', 1.63),
  ('AUUCCCCUAGGUCUUCGGGUG [Fam2.2 aminoacylation ribozyme variant]', 'biotinyl-Ile-oxazolone', 13.7),
  ('CCACAUUGCAAGCAAUCGGUC [Fam1B.1 aminoacylation ribozyme variant]', 'biotinyl-Ile-oxazolone', 1.75),
  ('AAGUGGGCUAAUAGUCGCAAG [Fam3.1 aminoacylation ribozyme variant]', 'biotinyl-Ile-oxazolone', 1.6),
  ('AUUACCCUGGUCAUCGGGUGG [Fam2.1 aminoacylation ribozyme variant]', 'biotinyl-Ile-oxazolone', 22.6),
  ('AAGUUUGCUACUAGUCGCAUG [Fam3.1 aminoacylation ribozyme variant]', 'biotinyl-Ile-oxazolone', 0.915),
  ('AAGUUUGCUAAUAGUCGUGAG [Fam3.1 aminoacylation ribozyme variant]', 'biotinyl-Ile-oxazolone', 1.19);
